Cited source for all entries: patent US9149538B2

test system: MDBK cells; details: read-out: TC50, cells plus drug only, XTT
CC50 by entry:

Example entries and their recorded answers appear below.
# compound, CC50
measured = [
    ("COCCOCCOCCOCCOCCN(CCOCCOCCOCCOCCOC)C(=O)c1ncn([C@@H]2O[C@H](CO)[C@@H](O)[C@H]2O)n1 [Di-mPEG5-N-Ribavirin]", "> 100 µM"),
    ("COCCOCCOCCOCCOCCOCCOCCNC(=N)c1ncn([C@@H]2O[C@H](CO)[C@@H](O)[C@H]2O)n1 [mPEG7-N-Ribamidine]", "> 100 µM"),
    ("COCCOCCOCCNC(=N)c1ncn([C@@H]2O[C@H](CO)[C@@H](O)[C@H]2O)n1 [mPEG3-N-Ribamidine]", "> 100 µM"),
    ("COCCOCCOCCOCCOCCOCCOCCN(CCOCCOCCOCCOCCOCCOCCOC)C(=O)c1ncn([C@@H]2O[C@H](CO)[C@@H](O)[C@H]2O)n1 [Di-mPEG7-N-Ribavirin]", "> 100 µM"),
    ("COCCOCCOCCOCCOCCNC(=O)c1ncn([C@@H]2O[C@H](CO)[C@@H](O)[C@H]2O)n1 [mPEG5-N-Ribavirin]", "> 100 µM"),
]

Could you now consider this next compound?
Lab note: compound COCCOCCOCCOCCOCCOCCNC(=N)c1ncn([C@@H]2O[C@H](CO)[C@@H](O)[C@H]2O)n1 [mPEG6-N-Ribamidine] tested on MDBK cells; recorded CC50 was 87.6 µM

---

test system: MDCK cells
test readout: CC50

Reference set, count: 2
# compound, CC50
rows = [
    ("COCCOCCOCCOCCOCCOCCOCCN(CCOCCOCCOCCOCCOCCOCCOC)C(=O)c1ncn([C@@H]2O[C@H](CO)[C@@H](O)[C@H]2O)n1 [Di-mPEG7-N-Ribavirin]", "> 100 µM"),
    ("COCCOCCOCCOCCOCCN(CCOCCOCCOCCOCCOC)C(=O)c1ncn([C@@H]2O[C@H](CO)[C@@H](O)[C@H]2O)n1 [Di-mPEG5-N-Ribavirin]", "19.5 µM"),
]

// next entry
Input COCCOCCOCCOCCOCCNC(=O)c1ncn([C@@H]2O[C@H](CO)[C@@H](O)[C@H]2O)n1 [mPEG5-N-Ribavirin] . Output CC50: > 100 µM

---

Lab note: CC50 readings collected with MDCK cells for the following compounds.

Here's what some known entries look like.
# compound, CC50
measured = [
    ("COCCOCCOCCOCCOCCOCCNC(=N)c1ncn([C@@H]2O[C@H](CO)[C@@H](O)[C@H]2O)n1 [mPEG6-N-Ribamidine]", "> 100 µM"),
    ("COCCOCCOCCOCCOCCOCCOCCNC(=N)c1ncn([C@@H]2O[C@H](CO)[C@@H](O)[C@H]2O)n1 [mPEG7-N-Ribamidine]", "> 100 µM"),
]

Summary line: COCCOCCOCCNC(=N)c1ncn([C@@H]2O[C@H](CO)[C@@H](O)[C@H]2O)n1 [mPEG3-N-Ribamidine] , MDCK cells, reported CC50 = > 100 µM

---

test system: MDCK cells; settings: dog
test readout: CC50 (µM)
The figure you give is taken to be in µM; do not add the unit.

Query NC(=O)c1ncn([C@@H]2O[C@H](CO)[C@@H](O)[C@H]2O)n1 [Ribavirin, ribavirin, reference compound] on MDCK cells; CC50 returned: 79

---

experiment: in vitro; conditions: dog, TC50
test readout: CC50 (µM)
Numbers only here, please. The scale is µM.

Query NC(=O)c1ncn([C@@H]2O[C@H](CO)[C@@H](O)[C@H]2O)n1 [Ribavirin, ribavirin, reference compound] yields CC50 of 50
